# Details: buffer; pH 7.4; 200.0 µM
Task for the reader: assign each of the following compounds its reported solubility kinetic.

Which value of solubility kinetic has been reported for Cc1nc(SCC(=O)O)c(C#N)c(-c2ccco2)c1C(=O)N(C)C in the records?
> 0.0518 mg/mL

Do the same for O=C(O)C(=O)O.O=[N+]([O-])c1ccccc1CNC1CCCCCC1 please
> 0.0508 mg/mL

Do the same for N=C1C(c2ccccc2)=C(O)CN1c1cccc2ccccc12 please
> 0.0451 mg/mL

Do the same for CCNc1nc(OC)nc(N(OC)S(=O)(=O)c2ccc(C)cc2)n1 please
> 0.053 mg/mL

Do the same for CCC(=O)NCc1csc(-c2cccs2)n1 please
> 0.0379 mg/mL

Do the same for CCCCCC(=O)OC(CN1CCCC1=O)C[NH+]1CCCCCC1.[Cl-] (stereo unspecified) please
> 0.0562 mg/mL

Do the same for Nc1nc(SCC(=O)N2CCCC2)[nH]c(=O)c1NC(=O)c1cccs1 please
> 0.0569 mg/mL

Do the same for CCOc1cc(N2CCOCC2)c(OCC)cc1NC(=O)CSc1ncccc1C(=O)O please
> 0.0692 mg/mL

Do the same for O=C(Nc1ccc([N+](=O)[O-])cc1)N1CCCCCC1 please
> 0.0395 mg/mL

Do the same for Cc1ccc(CNC(=O)COC(=O)COc2ccc(C#N)cc2)cc1 please
> 0.0508 mg/mL

Do the same for CCC(=O)c1cn(CC(=O)Nc2cc(C)ccc2C)c2ccccc12 please
< 0.0004 mg/mL

----------
# Details: buffer; pH 7.4; 200.0 µM
Task for the reader: assign each of the following compounds its reported solubility kinetic.

Which value of solubility kinetic has been reported for CN1C2CCC1CC(OC(c1ccccc1)c1ccccc1N)C2 (stereo unspecified) in the records?
> 48.4 µg/mL

Do the same for CCC1CCCCN1C(=O)COC(=O)COc1ccc(Br)cc1 (stereo unspecified) please
> 57.6 µg/mL

Do the same for CC(C)CCn1c(=O)[nH]c2ccccc21 please
> 30.6 µg/mL

Do the same for O=c1c2cc([N+](=O)[O-])ccc2nc2n1CCC2 please
> 34.7 µg/mL

Do the same for COc1ccc(OC)c(Nc2nc(NCc3ccco3)nc(N)c2[N+](=O)[O-])c1 please
< 0.1 µg/mL

Do the same for N#Cc1ccc(C(=O)NC(=S)N2CCOCC2)cc1 please
> 41.3 µg/mL

----------
# Details: buffer; pH 7.4; 200.0 µM
Assay Readout: solubility kinetic

Which value of solubility kinetic has been reported for CCOc1ccccc1N1CCN(C(=O)NC2CCCCC2)CC1 in the records?
> 49.7 µg/mL

Do the same for O=C(CCc1ccc(S(=O)(=O)N2CCOCC2)cc1)Nc1c(F)cccc1F please
> 61.6 µg/mL

Do the same for O=C(NC(=S)N1CCCCCC1)c1ccccc1Cl please
> 44.5 µg/mL

Do the same for COc1cc(C(=O)Nc2ccn(C)n2)ccc1OC(F)F please
> 44.6 µg/mL

Do the same for Cc1cc(C)c(S(=O)(=O)NCc2cccnc2)cc1C please
> 43.6 µg/mL

Do the same for COc1cccc(NC(=O)COC(=O)C2CC2)c1 please
> 37.4 µg/mL

Do the same for N#C/C(=C\c1cccnc1)C(=O)Nc1ccc(C(=O)O)cc1 please
> 44 µg/mL

Do the same for CCN1CCN(C(=O)/C=C/c2ccc(C(C)C)cc2)CC1 please
> 43 µg/mL

Do the same for O=C(O)CCNC(=O)C12CC3CC(CC(C3)C1)C2 please
> 37.7 µg/mL

Do the same for O=C(Nc1cc(Cl)ccc1F)C1=COCCO1 please
> 38.6 µg/mL

Do the same for Cc1cc(C(=O)Nc2ccccc2C)c2ccccc2n1 please
34.7 µg/mL

Do the same for COc1ccc(CSCC(=O)NCCC(C)C)cc1 please
> 42.2 µg/mL

Do the same for CC(=O)c1ccc(OC(C)C(=O)Nc2cccc(S(=O)(=O)NCc3ccco3)c2)cc1 (centres undefined) please
> 66.4 µg/mL

Do the same for Cn1cccc1/C=C(/C#N)c1ccc(F)cc1 please
2.9 µg/mL

Do the same for Cc1nc(Nc2ccc(O)cc2)c2c3c(sc2n1)CCCC3 please
12.9 µg/mL

Do the same for CC(C)(C)c1csc(Sc2ccc([N+](=O)[O-])cn2)n1 please
1.1 µg/mL

Do the same for Cc1ccc2nc(NCCC(=O)O)nc(-c3ccccc3)c2c1 please
> 46.1 µg/mL

Do the same for COc1ccc(NC(=O)c2ccc(N3CCCC3=O)cc2)cc1Cl please
2.1 µg/mL

Do the same for COc1cc(/C=C/C(=O)OC(C)C(=O)Nc2ccc(Cl)cn2)ccc1OC(F)F (centres undefined) please
2.8 µg/mL
